System: DAPK1
Settings: concentration: 1 μM,replicates: in singlicate; n = 1;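 further: KINOMEscan kinase panel screen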
parameter: %Inh (%)
I only need the number, in %, no unit after it.

I would be grateful if you could share the reported %Inh for `Nc1nc(Nc2ccccc2)cc(-c2ccc3c(N)n[nH]c3c2)n1` .
34

I would be grateful if you could share the reported %Inh for `C[C@H]1Oc2cc(cnc2N)-c2c(nn(C)c2C#N)CN(C)C(=O)c2ccc(F)cc21` .
0

I would be grateful if you could share the reported %Inh for `CCn1c(-c2nonc2N)nc2c(C#CC(C)(C)O)nc(OCCN)cc21.Cl.Cl` .
0

I would be grateful if you could share the reported %Inh for `Cc1cc(C(=O)Nc2ccc(Oc3ccc4nc(NC(=O)C5CC5)cn4n3)cc2)nn1-c1ccccc1` .
0

I would be grateful if you could share the reported %Inh for `Cc1occc1-c1nc(N)c(OC[C@@H](N)Cc2c[nH]c3ccccc23)cc1-c1cc2c(C)n[nH]c2cn1` .
64

I would be grateful if you could share the reported %Inh for `Cc1ccc2c(-c3ccncc3)c(-c3ccc(F)cc3)nn2c1.Cl` .
0

I would be grateful if you could share the reported %Inh for `CCN(CC)CCCCNc1ncc2cc(-c3c(Cl)cccc3Cl)c(NC(=O)NC(C)(C)C)nc2n1` .
0

###

Tested on: PAK1
Settings: concentration: 1 μM,replicates: in singlicate; n = 1
1 (yes) means recorded %Inh is 8% or above; 0 (no) means it is below 8%.

hey, is %Inh for this one >= 8%? Cc1ccc(-n2nc(C(C)(C)C)cc2NC(=O)Nc2ccc(OCCN3CCOCC3)c3ccccc23)cc1 [GW839464]
0 (no)

hey, is %Inh for this one >= 8%? CN(C)CC(O)COc1ccc(Nc2nccc(-c3cnn4nc(N5CCOCC5)ccc34)n2)cc1 (stereo not drawn) [GW767488]
1 (yes)

hey, is %Inh for this one >= 8%? CC(C)Nc1cc(-c2ccc3c(N)n[nH]c3c2)nc(N)n1 [GSK2221681]
1 (yes)

hey, is %Inh for this one >= 8%? `CCN(CC)CCCCNc1ncc2cc(-c3c(Cl)cccc3Cl)c(NC(=O)NC(C)(C)C)nc2n1`
1 (yes)

hey, is %Inh for this one >= 8%? Cl.Oc1cc(-c2nc(-c3ccccc3)[nH]c2-c2ccncc2)ccc1Cl [SB-386023]
0 (no)

###

Can you tell me %Inh for the items I'm about to list?
System: NEK1
Settings: concentration: 1 μM,replicates: in singlicate; n = 1
I only need the number, in %, no unit after it.

I would be grateful if you could share the reported %Inh for `O=C(NCCNc1ccnc(NCc2ccc(F)cc2)n1)c1cc2ccccc2s1` .
0

I would be grateful if you could share the reported %Inh for `Cc1occc1-c1nc(N)c(OC[C@@H](N)Cc2c[nH]c3ccccc23)cc1-c1cc2c(C)n[nH]c2cn1` .
46

I would be grateful if you could share the reported %Inh for `C[C@@H](Oc1cc(-c2cnn(C3CCNCC3)c2)cnc1N)c1c(Cl)ccc(F)c1Cl` .
0

I would be grateful if you could share the reported %Inh for Cl.Cl.Nc1nc(-c2ccc3c(N)n[nH]c3c2)cc(N2CCCC(NC(=O)c3ccccc3)C2)n1 (stereo not drawn) .
7

I would be grateful if you could share the reported %Inh for `Cc1n[nH]c2ccc(-c3cc(OC[C@@H](N)Cc4ccccc4)cnc3-c3ccoc3)cc12.O=C(O)C(F)(F)F.O=C(O)C(F)(F)F` .
1

I would be grateful if you could share the reported %Inh for `CNC(=O)c1ccccc1Sc1ccc2c(/C=C/c3ccccn3)n[nH]c2c1` .
0

###

Can you tell me %Inh for the items I'm about to list?
System: PAK2
Conditions: concentration: 1 μM,replicates: in singlicate; n = 1
I only need the number, in %, no unit after it.

I would be grateful if you could share the reported %Inh for `O=C(NCCNc1ccnc(NCc2ccc(F)cc2)n1)c1cc2ccccc2s1` .
20

I would be grateful if you could share the reported %Inh for `Cc1ccc(-n2nc(C(C)(C)C)cc2NC(=O)Nc2ccc(OCCN3CCOCC3)c3ccccc23)cc1` .
0

I would be grateful if you could share the reported %Inh for `CCN(CC)CCCCNc1ncc2cc(-c3c(Cl)cccc3Cl)c(NC(=O)NC(C)(C)C)nc2n1` .
2

I would be grateful if you could share the reported %Inh for `O=C(NCCCN1CCOC1=O)c1cnc(NCc2cc(Cl)ccc2Cl)nc1NC1CCCC1` .
17

###

System: TAOK3
Conditions: concentration: 1 μM,replicates: in singlicate; n = 1
Can you tell me %Inh for the items I'm about to list?
I only need the number, in %, no unit after it.

Under TAOK3: %Inh value of `Cc1cc(C(=O)Nc2ccc(Oc3ccc4nc(NC(=O)C5CC5)cn4n3)cc2)nn1-c1ccccc1` ?
0

Under TAOK3: %Inh value of `CC(C)N1C(=O)Cc2cc(Nc3ncc(C(F)(F)F)c(NCc4cccc(S(C)(=O)=O)c4)n3)ccc21` ?
0

Under TAOK3: %Inh value of `Cc1cc2cn[nH]c2cc1-c1cccc2c(N)c(C(N)=O)nnc12` ?
39

###

System: ERBB4
Conditions: concentration: 1 μM,replicates: in singlicate; n = 1
Can you tell me %Inh for the items I'm about to list?
I only need the number, in %, no unit after it.

Under ERBB4: %Inh value of COc1ccc(C[C@@H](CN)NC(=O)c2cc(Br)c(-c3ccnc4[nH]ccc34)s2)cc1.Cl.Cl [GSK1389063] ?
38

Under ERBB4: %Inh value of Cl.Oc1cc(-c2nc(-c3ccccc3)[nH]c2-c2ccncc2)ccc1Cl [SB-386023] ?
23

Under ERBB4: %Inh value of CC(C)Nc1cc(-c2ccc3c(N)n[nH]c3c2)nc(N)n1 [GSK2221681] ?
0

Under ERBB4: %Inh value of CN(C)CCOc1ccc(-c2cc(-c3c[nH]nc3-c3ccccn3)ccn2)cc1 [GW835314] ?
0

Under ERBB4: %Inh value of Nc1nc(Nc2ccccc2)cc(-c2ccc3c(N)n[nH]c3c2)n1 [GSK2225749] ?
0

###

System: FLT3-autoinhibited
Conditions: concentration: 1 μM,replicates: in singlicate; n = 1
parameter: %Inh (%)
I only need the number, in %, no unit after it.

I would be grateful if you could share the reported %Inh for `CN(C)CCOc1ccc(-c2cc(-c3c[nH]nc3-c3ccccn3)ccn2)cc1` .
35

I would be grateful if you could share the reported %Inh for `Cc1ccc2c(-c3ccncc3)c(-c3ccc(F)cc3)nn2c1.Cl` .
0

I would be grateful if you could share the reported %Inh for `C=CC(=O)Nc1cc2c(Nc3ccc(F)c(Cl)c3)ncnc2cc1OCCCN1CCOCC1` .
2

I would be grateful if you could share the reported %Inh for `Cc1ccc(-n2nc(C(C)(C)C)cc2NC(=O)Nc2ccc(OCCN3CCOCC3)c3ccccc23)cc1` .
0

###

Test system: BIKE
Construct: gene BMP2K
Conditions: concentration: 1 μM,replicates: in singlicate; n = 1
parameter: %Inh (%)
I only need the number, in %, no unit after it.

I would be grateful if you could share the reported %Inh for Cl.Cl.Nc1nc(-c2ccc3c(N)n[nH]c3c2)cc(N2CCCC(NC(=O)c3ccccc3)C2)n1 (centres unmarked) .
80

I would be grateful if you could share the reported %Inh for `C[C@@H](Oc1cc(-c2cnn(C3CCNCC3)c2)cnc1N)c1c(Cl)ccc(F)c1Cl` .
86

I would be grateful if you could share the reported %Inh for `Cl.Oc1cc(-c2nc(-c3ccccc3)[nH]c2-c2ccncc2)ccc1Cl` .
3

I would be grateful if you could share the reported %Inh for `Cc1cc2cn[nH]c2cc1-c1cccc2c(N)c(C(N)=O)nnc12` .
75

I would be grateful if you could share the reported %Inh for `C[C@H]1Oc2cc(cnc2N)-c2c(nn(C)c2C#N)CN(C)C(=O)c2ccc(F)cc21` .
0

I would be grateful if you could share the reported %Inh for `C[C@@H]1CCN(C(=O)CC#N)C[C@@H]1N(C)c1ncnc2[nH]ccc12` .
17

I would be grateful if you could share the reported %Inh for `Nc1nc(Nc2ccccc2)cc(-c2ccc3c(N)n[nH]c3c2)n1` .
98.9

I would be grateful if you could share the reported %Inh for `CC(C)Nc1cc(-c2ccc3c(N)n[nH]c3c2)nc(N)n1` .
90.7

###

System: MKK7
Conditions: concentration: 1 μM,replicates: in singlicate; n = 1
Can you tell me %Inh for the items I'm about to list?
I only need the number, in %, no unit after it.

I would be grateful if you could share the reported %Inh for Cl.Cl.NC[C@H](Cc1ccc(C(F)(F)F)cc1)NC(=O)c1cc(Br)c(-c2ccnc3[nH]ccc23)s1 [GSK1487252] .
0

I would be grateful if you could share the reported %Inh for CCn1c(-c2nonc2N)nc2c(C#CC(C)(C)O)nc(OCCN)cc21.Cl.Cl [GSK902056] .
0

I would be grateful if you could share the reported %Inh for `C[C@@H](Oc1cc(-c2cnn(C3CCNCC3)c2)cnc1N)c1c(Cl)ccc(F)c1Cl` .
0

I would be grateful if you could share the reported %Inh for CCN(CC)CCOc1ccc(Nc2ncc3cc(-c4c(Cl)cccc4Cl)c(=O)n(C)c3n2)cc1 [SB-601273] .
11

Origin of measurements: paper PMC5540273
